PROTOCOL: H69AR cell proliferation blockers – human, duplicate replicates, primary screen (AID 580);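 also: 100% = mean luminescence of untreated wells and 0% = no signal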
PROTOCOL_CONDITIONS: H69AR lung tumor cells viability, ATP luminescence, 72 h; at 10 µM; stronger effect = lower value
MEASURED_ENDPOINT: viability (%)
Give the value, in units of %, as a plain number.

Take a look at these entries with their results.
[
  {
    "COMPOUND": "CCOc1cccc(OCCCCn2ccnc2)c1",
    "READOUT_UNIT": "%",
    "viability": 85.4
  },
  {
    "COMPOUND": "CC1=C(C(N)=O)C(c2ccccn2)n2nc(SCc3ccccc3)nc2N1 (stereo not drawn)",
    "READOUT_UNIT": "%",
    "viability": 93.8
  },
  {
    "COMPOUND": "COc1ccc(NC(=O)CN(c2cc(C)cc(C)c2)S(=O)(=O)c2c(C)noc2C)cc1OC",
    "READOUT_UNIT": "%",
    "viability": 88.2
  },
  {
    "COMPOUND": "COCCCN(C)C1CCN(C(=O)Nc2ccc(F)cc2)CC1",
    "READOUT_UNIT": "%",
    "viability": 89
  },
  {
    "COMPOUND": "CCOc1ccc2[nH]c(C)cc(=O)c2c1",
    "READOUT_UNIT": "%",
    "viability": 108
  },
  {
    "COMPOUND": "CC1CCC(NC(=O)C2(C)CCC(=O)N2Cc2cccnc2)CC1 (stereo not drawn)",
    "READOUT_UNIT": "%",
    "viability": 78.6
  }
]

I'd like to know its viability. The compound in question is CCn1cc(SCC(=O)NCC2CCCO2)c2ccccc21 (stereo not drawn)
85.5

Consider the compound CC1(C)CC(=O)c2cnc(NC(=O)Cc3ccc(Cl)cc3)nc2C1 and give its measured viability.
100

---

PROTOCOL: growth suppression of yeast trafficking mutant, preliminary HTS, modulators of trafficking downstream of Golgi apparatus project, 1536-format plate, OD 615 nm (AID 637)
PROTOCOL_CONDITIONS: yeast transport mutant growth, absorbance 615 nm, 18 h; stronger effect = higher value
inhibition reference
Give a bare numeral; the unit % is implied.

A selection of reference data follows.
[
  {
    "COMPOUND": "CN(C)CCNc1oc(-c2ccccc2F)nc1C#N",
    "READOUT_UNIT": "%",
    "inhibition": 3.77
  },
  {
    "COMPOUND": "O=C(c1ccc(Cl)s1)N1CCN(c2nc3ccccc3s2)CC1",
    "READOUT_UNIT": "%",
    "inhibition": 2.5
  },
  {
    "COMPOUND": "CCOC(=O)/C=C1\\CC(=O)Nc2nonc2N1",
    "READOUT_UNIT": "%",
    "inhibition": 0.97
  },
  {
    "COMPOUND": "c1ccc(-c2cn3cccnc3n2)cc1",
    "READOUT_UNIT": "%",
    "inhibition": -0.73
  },
  {
    "COMPOUND": "C=C(C)c1cccc(C(C)(C)NC(=O)NCC2CCCO2)c1 (stereo unspecified)",
    "READOUT_UNIT": "%",
    "inhibition": -8.5
  },
  {
    "COMPOUND": "CC1CCN(Cc2ccc(NC(=O)C3CCN(c4nnc(-n5cccc5)s4)CC3)cc2)CC1",
    "READOUT_UNIT": "%",
    "inhibition": 1.33
  },
  {
    "COMPOUND": "CCCCc1nc2ccccc2n2cc3c(=O)n(C)c(=O)n(C)c3c12",
    "READOUT_UNIT": "%",
    "inhibition": 2.17
  },
  {
    "COMPOUND": "Cc1ccc(-n2nc(C)c3cc(C(=O)O)sc32)cc1",
    "READOUT_UNIT": "%",
    "inhibition": -2
  },
  {
    "COMPOUND": "COc1ccc(C(C)N2CC34C=CC(O3)C(C(=O)OCC(C)C)C4C2=O)cc1 (stereo unspecified)",
    "READOUT_UNIT": "%",
    "inhibition": -2.33
  },
  {
    "COMPOUND": "COc1ccc(NC(=O)CSc2nnc(-c3ccccc3)n2N)cc1",
    "READOUT_UNIT": "%",
    "inhibition": -0.16
  }
]

Requested read-out: inhibition. Entry: CCN(CC)CCN1C(=O)c2oc3ccc(F)cc3c(=O)c2C1c1ccncc1 (stereo unspecified)
-8.67
